assay: protein stability index of a GFP-peptide fusion (yeast GPS) (PSI 1-4); higher = more stable; sorted into four equal gates, so the index is relative within each strain; conditions: ubr1∆
MEASUREMENT_NAME: protein stability index
Form rule: numeric answer, no unit written next to it.

{"PRIMARY_SEQUENCE": "CEINYYEILLKILITYG [SRB8]", "protein stability index": 1.2}
{"PRIMARY_SEQUENCE": "NKQIEILTDLVNYRHFK [ITC1]", "protein stability index": 2.75}
{"PRIMARY_SEQUENCE": "LWLKKVMEEEEQDCKCI [POP8]", "protein stability index": 2.99}
{"PRIMARY_SEQUENCE": "FLSQGLHVVITLLREVV [CSN12]", "protein stability index": 2.13}
{"PRIMARY_SEQUENCE": "PLKLSGEGPFTVKFKHM [YMR129W/POM152]", "protein stability index": 2.72}
{"PRIMARY_SEQUENCE": "GSSKPAFSFGAKPDEKK [YJL041W/NSP1]", "protein stability index": 3.29}
{"PRIMARY_SEQUENCE": "PKSTLDNWRREFLKWTP [ISW2]", "protein stability index": 2.76}

Turning now to a further sequence:
If you can, please state the reported protein stability index value of QQKANLLSSSNFEATKK [COR1] . 1.91
